Where a SMILES comes first, the peptide text is derived from it. [ ]: non-standard residue; d: D form. 2Nal = N[C@@H](Cc1ccc2ccccc2c1)C(=O)O; d2Nal = N[C@H](Cc1ccc2ccccc2c1)C(=O)O
mMC4R (Mus musculus) data, read-out pKi
Sequence (P56450 whole entry, looked up): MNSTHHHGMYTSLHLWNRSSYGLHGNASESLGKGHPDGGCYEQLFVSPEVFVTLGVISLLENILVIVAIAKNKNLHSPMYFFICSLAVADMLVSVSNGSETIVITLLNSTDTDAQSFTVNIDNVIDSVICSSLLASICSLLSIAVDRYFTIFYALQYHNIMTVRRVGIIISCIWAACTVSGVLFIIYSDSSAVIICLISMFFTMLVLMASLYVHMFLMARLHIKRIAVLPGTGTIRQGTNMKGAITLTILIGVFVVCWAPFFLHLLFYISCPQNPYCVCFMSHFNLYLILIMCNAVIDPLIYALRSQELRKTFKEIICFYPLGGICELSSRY
FYI, pKi means -log10 of a concentration in mol per litre.

In the examples that follow, each entry is paired with its recorded pKi.
# compound, endpoint label, measured
data = [
    ("CC(=O)N[C@H](Cc1ccc2ccccc2c1)C(=O)N[C@@H](CCCNC(=N)N)C(=O)N[C@@H](Cc1c[nH]c2ccccc12)C(=O)N[C@@H](CCCNC(=N)N)C(N)=O [18 | MDE10-27, Ac-DNal(2’)-Arg-Trp-Arg-NH2] (Ac-[d2Nal]RWR-NH2)", "pKi", 8.30),
    ("CC(=O)N[C@H](Cc1ccc2ccccc2c1)C(=O)N[C@H](Cc1ccc2ccccc2c1)C(=O)N[C@@H](Cc1c[nH]c2ccccc12)C(=O)N[C@H](CCCCN)C(N)=O [4 | COR1-29-2, Ac-DNal(2’)-DNal(2’)-Trp-DLys-NH2] (Ac-[d2Nal][d2Nal]W[dK]-NH2)", "pKi", 6.70),
    ("CC(=O)N[C@H](Cc1ccc2ccccc2c1)C(=O)N[C@@H](CCCNC(=N)N)C(=O)N[C@@H](Cc1ccc2ccccc2c1)C(=O)N[C@H](CCCCN)C(N)=O [22 | COR1-29-8, Ac-DNal(2’)-Arg-Nal(2’)-DLys-NH2] (Ac-[d2Nal]R[2Nal][dK]-NH2)", "pKi", 7.80),
]

For the next question, use this compound.
# lookup: mMC4R (Mus musculus) pKi, key = CC(=O)N[C@H](Cc1ccc2ccccc2c1)C(=O)N[C@@H](CCCNC(=N)N)C(=O)N[C@@H](Cc1c[nH]c2ccccc12)C(=O)N[C@H](CCCCN)C(N)=O [16 | COR1-29-6, Ac-DNal(2’)-Arg-Trp-DLys-NH2] (Ac-[d2Nal]RW[dK]-NH2)
7.70

---

Listed here: compounds with reported pKi for mMC4R (Mus musculus).
Where a SMILES comes first, the peptide text is derived from it. [ ]: non-standard residue; d: D form. 2Nal = N[C@@H](Cc1ccc2ccccc2c1)C(=O)O; d2Nal = N[C@H](Cc1ccc2ccccc2c1)C(=O)O
In simple prose, pKi is minus the logarithm base ten of a concentration in moles per litre.

# compound, assayed system, pKi
data = [
    ("CC(=O)N[C@H](Cc1ccc2ccccc2c1)C(=O)N[C@@H](CCCNC(=N)N)C(=O)N[C@@H](Cc1ccc2ccccc2c1)C(=O)N[C@H](Cc1ccc2ccccc2c1)C(N)=O [23 | COR2-33, Ac-DNal(2’)-Arg-Nal(2’)-DNal(2’)-NH2] (Ac-[d2Nal]R[2Nal][d2Nal]-NH2)", "mMC4R (Mus musculus)", 6.70),
]

Please find the next compound below.
Provide the reported pKi (system: mMC4R (Mus musculus)) for CC(=O)N[C@H](Cc1ccc2ccccc2c1)C(=O)N[C@@H](CCCNC(=N)N)C(=O)N[C@H](Cc1ccc2ccccc2c1)C(=O)N[C@H](Cc1ccc2ccccc2c1)C(N)=O [14 | COR2-57, Ac-DNal(2’)-Arg-DNal(2’)-DNal(2’)-NH2] (Ac-[d2Nal]R[d2Nal][d2Nal]-NH2)
6.30

---

Target: UniProt P33033
Where a SMILES comes first, the peptide text is derived from it. [ ]: non-standard residue; d: D form. dPhe(4-I) = N[C@H](Cc1ccc(I)cc1)C(=O)O; d2Nal = N[C@H](Cc1ccc2ccccc2c1)C(=O)O
Recorded Ki by entry
Quick note: give the figure in nM, leave out the unit.

# compound, Ki [nM]
measured = [
    ("CC(=O)N[C@H](Cc1ccc2ccccc2c1)C(=O)N[C@@H](CCCNC(=N)N)C(=O)N[C@H](Cc1ccc(I)cc1)C(=O)N[C@H](Cc1ccc2ccccc2c1)C(N)=O [20 | COR2-15, Ac-DNal(2’)-Arg-DPhe(pI)-DNal(2’)-NH2] (Ac-[d2Nal]R[dPhe(4-I)][d2Nal]-NH2)", 790),
]

Proceeding to the next compound to report its Ki.
Report value: Ki, system: UniProt P33033, compound: CC(=O)N[C@H](Cc1ccc2ccccc2c1)C(=O)N[C@@H](CCCNC(=N)N)C(=O)N[C@@H](Cc1c[nH]c2ccccc12)C(=O)N[C@@H](CCCNC(=N)N)C(N)=O [18 | MDE10-27, Ac-DNal(2’)-Arg-Trp-Arg-NH2] (Ac-[d2Nal]RWR-NH2)
160

---

Target: mMC3R (Mus musculus, UniProt P33033)
Sequence (P33033 whole entry, looked up): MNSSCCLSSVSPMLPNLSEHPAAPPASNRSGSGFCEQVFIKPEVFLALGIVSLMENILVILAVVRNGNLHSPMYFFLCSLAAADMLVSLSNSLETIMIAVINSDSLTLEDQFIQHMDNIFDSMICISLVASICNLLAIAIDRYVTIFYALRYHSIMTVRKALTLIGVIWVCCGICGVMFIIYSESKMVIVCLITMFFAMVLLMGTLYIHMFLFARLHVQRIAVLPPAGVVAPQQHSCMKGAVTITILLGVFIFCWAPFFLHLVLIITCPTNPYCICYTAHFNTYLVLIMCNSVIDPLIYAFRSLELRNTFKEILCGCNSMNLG
Where a SMILES comes first, the peptide text is derived from it. [ ]: non-standard residue; d: D form. dPhe(4-I) = N[C@H](Cc1ccc(I)cc1)C(=O)O; 2Nal = N[C@@H](Cc1ccc2ccccc2c1)C(=O)O; d2Nal = N[C@H](Cc1ccc2ccccc2c1)C(=O)O
Ki values for the compounds below.
Give a bare numeral; the unit nM is implied.

Worked set:
# compound, endpoint label, unit info, measured
records = [
    ("CC(=O)N[C@H](Cc1ccc2ccccc2c1)C(=O)N[C@@H](CCCNC(=N)N)C(=O)N[C@@H](Cc1ccc2ccccc2c1)C(=O)N[C@H](CCCCN)C(N)=O [22 | COR1-29-8, Ac-DNal(2’)-Arg-Nal(2’)-DLys-NH2] (Ac-[d2Nal]R[2Nal][dK]-NH2)", "Ki", "nM", 630),
    ("CC(=O)N[C@H](Cc1ccc2ccccc2c1)C(=O)N[C@@H](CCCNC(=N)N)C(=O)N[C@H](Cc1ccc2ccccc2c1)C(=O)N[C@H](CCCCN)C(N)=O [13 | COR1-29-5, Ac-DNal(2’)-Arg-DNal(2’)-DLys-NH2] (Ac-[d2Nal]R[d2Nal][dK]-NH2)", "Ki", "nM", 1000),
    ("CC(=O)N[C@H](Cc1ccc2ccccc2c1)C(=O)N[C@@H](CCCNC(=N)N)C(=O)N[C@@H](Cc1c[nH]c2ccccc12)C(=O)N[C@H](Cc1ccc2ccccc2c1)C(N)=O [17 | COR1-60, Ac-DNal(2’)-Arg-Trp-DNal(2’)-NH2] (Ac-[d2Nal]RW[d2Nal]-NH2)", "Ki", "nM", 2000),
]

Continue with the next compound.
Answer briefly: Ki recorded on mMC3R (Mus musculus, UniProt P33033) for CC(=O)N[C@H](Cc1ccc2ccccc2c1)C(=O)N[C@@H](CCCNC(=N)N)C(=O)N[C@H](Cc1ccc(I)cc1)C(=O)N[C@@H](CCCNC(=N)N)C(N)=O [21 | COR2-105, Ac-DNal(2’)-Arg-DPhe(pI)-Arg-NH2] (Ac-[d2Nal]R[dPhe(4-I)]R-NH2)
79

---

Target: mMC3R (Mus musculus)
Where a SMILES comes first, the peptide text is derived from it. [ ]: non-standard residue; d: D form. d2Nal = N[C@H](Cc1ccc2ccccc2c1)C(=O)O
endpoint label: pKi
Keep in mind that pKi stands for -log10 of concentration in molar terms.

Report pKi on mMC3R (Mus musculus) for this entry: CC(=O)N[C@H](Cc1ccc2ccccc2c1)C(=O)N[C@@H](CCCNC(=N)N)C(=O)N[C@@H](Cc1c[nH]c2ccccc12)C(=O)N[C@H](CCCCN)C(N)=O [16 | COR1-29-6, Ac-DNal(2’)-Arg-Trp-DLys-NH2] (Ac-[d2Nal]RW[dK]-NH2)
5.49

Lab note: record pKi of CC(=O)N[C@H](Cc1ccc2ccccc2c1)C(=O)N[C@@H](CCCNC(=N)N)C(=O)N[C@H](Cc1ccc2ccccc2c1)C(=O)N[C@H](Cc1ccc2ccccc2c1)C(N)=O [14 | COR2-57, Ac-DNal(2’)-Arg-DNal(2’)-DNal(2’)-NH2] (Ac-[d2Nal]R[d2Nal][d2Nal]-NH2) tested on mMC3R (Mus musculus).
5.70

---

Molecular target: mMC4R (Mus musculus)
Assay: mMC4R | Antagonist Potency Ki (nM)
Set-up: expressed in transfected cells; host or cells: HEK293
Where a SMILES comes first, the peptide text is derived from it. [ ]: non-standard residue; d: D form. dPhe(4-I) = N[C@H](Cc1ccc(I)cc1)C(=O)O; 2Nal = N[C@@H](Cc1ccc2ccccc2c1)C(=O)O; d2Nal = N[C@H](Cc1ccc2ccccc2c1)C(=O)O
Measured Ki, listed per entry for reference.
Respond with the bare value in nM.

Use these answered entries as a reference point.
# compound, assayed system, measured
data = [
    ("CC(=O)N[C@H](Cc1ccc2ccccc2c1)C(=O)N[C@@H](CCCNC(=N)N)C(=O)N[C@@H](Cc1ccc2ccccc2c1)C(=O)N[C@@H](CCCNC(=N)N)C(N)=O [24 | MDE10-28, Ac-DNal(2’)-Arg-Nal(2’)-Arg-NH2] (Ac-[d2Nal]R[2Nal]R-NH2)", "mMC4R (Mus musculus)", 1.6),
    ("CC(=O)N[C@H](Cc1ccc(I)cc1)C(=O)N[C@H](Cc1ccc2ccccc2c1)C(=O)N[C@H](Cc1ccc2ccccc2c1)C(=O)N[C@H](CCCCN)C(N)=O [25 | COR1-80, Ac-DPhe(pI)-DNal(2’)-DNal(2’)-DLys-NH2] (Ac-[dPhe(4-I)][d2Nal][d2Nal][dK]-NH2)", "mMC4R (Mus musculus)", 500),
    ("CC(=O)N[C@H](Cc1ccc2ccccc2c1)C(=O)N[C@@H](CCCNC(=N)N)C(=O)N[C@H](Cc1ccc(I)cc1)C(=O)N[C@@H](CCCNC(=N)N)C(N)=O [21 | COR2-105, Ac-DNal(2’)-Arg-DPhe(pI)-Arg-NH2] (Ac-[d2Nal]R[dPhe(4-I)]R-NH2)", "mMC4R (Mus musculus)", 2.5),
]

Turning to the following compound.
Name the recorded Ki of the item CC(=O)N[C@H](Cc1ccc2ccccc2c1)C(=O)N[C@@H](CCCNC(=N)N)C(=O)N[C@H](Cc1ccc2ccccc2c1)C(=O)N[C@H](CCCCN)C(N)=O [13 | COR1-29-5, Ac-DNal(2’)-Arg-DNal(2’)-DLys-NH2] (Ac-[d2Nal]R[d2Nal][dK]-NH2) in your answer.
6.3
